- Tested on: 282377-053-R-J1-PDC complex spheroid viability
- assay.info: Anticancer human tumor 282377-053-R-J1-PDC patient-derived colon adenocarcinoma cell line growth inhibition [RAS]
- condition.notes: second compound 0.316 µM; first compound 10 µM; stronger effect = lower value
assay.endpoint: viability, T/C (%)

compound: C[C@@H](NC(=O)c1ncnc(N)c1Cl)c1ncc(C(=O)Nc2cc(C(F)(F)F)c(Cl)cn2)s1 + C#Cc1c(F)ccc2cc(O)cc(-c3ncc4c(N5CC6CCC(C5)N6)nc(OCC56CCCN5CC(F)C6)nc4c3F)c12
meas.value: 71.7
//
compound: CC(=O)OC12COC1CC(O)C1(C)C(=O)C(O)C3=C(C)C(OC(=O)C(O)C(NC(=O)OC(C)(C)C)c4ccccc4)CC(O)(C(OC(=O)c4ccccc4)C21)C3(C)C (stereo not given) + C=CC(=O)N1CCN(c2nc(OCC3CCCN3C)nc3c(F)c(-c4nc(N)cc(C)c4C(F)(F)F)c(Cl)cc23)C(C)C1
meas.value: 53.6
//
compound: CCC(CC)c1cc(NC2CCC(N)C2)n2nccc2n1 (stereo not given) + C=CC(=O)N1CCN(c2nc(OCC3CCCN3C)nc3c(F)c(-c4nc(N)cc(C)c4C(F)(F)F)c(Cl)cc23)C(C)C1
meas.value: 1.9
//
compound: CCC(CC)c1cc(NC2CCC(N)C2)n2nccc2n1 (stereo not given) + C#Cc1c(F)ccc2cc(O)cc(-c3ncc4c(N5CC6CCC(C5)N6)nc(OCC56CCCN5CC(F)C6)nc4c3F)c12
meas.value: 2.11
//
compound: CC1(O)CCCC1n1c(=O)c(C(F)F)cc2cnc(NC3CCN(S(C)(=O)=O)CC3)nc21 (stereo not given) + C#Cc1c(F)ccc2cc(O)cc(-c3ncc4c(N5CC6CCC(C5)N6)nc(OCC56CCCN5CC(F)C6)nc4c3F)c12
meas.value: 3.11
//
compound: Cc1nc(N2CCC3(CC2)COC(C)C3N)c(CO)nc1Sc1ccnc(N)c1Cl (stereo not given) + C=CC(=O)N1CCN(c2nc(OCC3CCCN3C)nc3c(F)c(-c4nc(N)cc(C)c4C(F)(F)F)c(Cl)cc23)C(C)C1
meas.value: 108
//
compound: NC1c2ccccc2OC12CCN(c1cnc3c(N4CCCc5ncccc54)n[nH]c3n1)CC2 (stereo not given) + C=CC(=O)N1CCN(c2nc(OCC3CCCN3C)nc3c(F)c(-c4nc(N)cc(C)c4C(F)(F)F)c(Cl)cc23)C(C)C1
meas.value: 91.1
//
compound: C[C@@H](NC(=O)c1ncnc(N)c1Cl)c1ncc(C(=O)Nc2cc(C(F)(F)F)c(Cl)cn2)s1 + C=CC(=O)N1CCN(c2nc(OCC3CCCN3C)nc3c(F)c(-c4nc(N)cc(C)c4C(F)(F)F)c(Cl)cc23)C(C)C1
meas.value: 92.3
//
compound: CC(Nc1ccc2c(c1)OCCn1cc(N3C(=O)OCC3C(F)F)nc1-2)C(N)=O (stereo not given) + C=CC(=O)N1CCN(c2nc(OCC3CCCN3C)nc3c(F)c(-c4nc(N)cc(C)c4C(F)(F)F)c(Cl)cc23)C(C)C1
meas.value: 78.4
//
compound: CC(C)NCC(C(=O)N1CCN(c2ncnc3c2C(C)CC3O)CC1)c1ccc(Cl)cc1 (stereo not given) + C#Cc1c(F)ccc2cc(O)cc(-c3ncc4c(N5CC6CCC(C5)N6)nc(OCC56CCCN5CC(F)C6)nc4c3F)c12
meas.value: 85.3

---

- Test system: 282377-053-R-J1-PDC complex spheroid viability
- assay.info: Anticancer human tumor 282377-053-R-J1-PDC cell line growth inhibition [RAS];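 also: spheroids exposed to agents for seven days before readout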
- condition.notes: curve of first compound; second compound 0.03 µM
pIC50: −log10 of the molar value.

molecule: CC(C)NCC(C(=O)N1CCN(c2ncnc3c2C(C)CC3O)CC1)c1ccc(Cl)cc1 (centres undefined) + CCn1c(-c2cccnc2C(C)OC)c2c3cc(ccc31)N1CCOC(CC(NC(=O)C(C(C)C)N(C)C(=O)C3(F)CCN(C(=O)C#CC(C)(C)N(C)C)CC3)C(=O)N3CCCC(N3)C(=O)OCC(C)(C)C2)C1
pIC50: < 5.00
//
molecule: CC(=O)OC12COC1CC(O)C1(C)C(=O)C(O)C3=C(C)C(OC(=O)C(O)C(NC(=O)OC(C)(C)C)c4ccccc4)CC(O)(C(OC(=O)c4ccccc4)C21)C3(C)C (centres undefined) + CCn1c(-c2cccnc2C(C)OC)c2c3cc(ccc31)N1CCOC(CC(NC(=O)C(C(C)C)N(C)C(=O)C3(F)CCN(C(=O)C#CC(C)(C)N(C)C)CC3)C(=O)N3CCCC(N3)C(=O)OCC(C)(C)C2)C1
pIC50: > 7.50
//
molecule: CC1(O)CCCC1n1c(=O)c(C(F)F)cc2cnc(NC3CCN(S(C)(=O)=O)CC3)nc21 (centres undefined) + CCn1c(-c2cccnc2C(C)OC)c2c3cc(ccc31)N1CCOC(CC(NC(=O)C(C(C)C)N(C)C(=O)C3(F)CCN(C(=O)C#CC(C)(C)N(C)C)CC3)C(=O)N3CCCC(N3)C(=O)OCC(C)(C)C2)C1
pIC50: 5.16
//
molecule: CCN1CCN(Cc2ccc(Nc3ncc(F)c(-c4cc(F)c5nc(C)n(C(C)C)c5c4)n3)nc2)CC1 + CCn1c(-c2cccnc2C(C)OC)c2c3cc(ccc31)N1CCOC(CC(NC(=O)C(C(C)C)N(C)C(=O)C3(F)CCN(C(=O)C#CC(C)(C)N(C)C)CC3)C(=O)N3CCCC(N3)C(=O)OCC(C)(C)C2)C1
pIC50: < 6.00

---

This section presents compounds with their documented viability, T/C values.
- Test system: 282377-053-R-J1-PDC complex spheroid viability
- assay.info: Anticancer human tumor 282377-053-R-J1-PDC cell line growth inhibition [RAS];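 also: spheroids exposed to agents for seven days before readout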;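 as to viability, T/C: luminescence viability as percent of DMSO vehicle control wells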
- condition.notes: second compound 0.1 µM; first compound 3.16 µM; stronger effect = lower value

compound: CC1(O)CCCC1n1c(=O)c(C(F)F)cc2cnc(NC3CCN(S(C)(=O)=O)CC3)nc21 (stereo not given) + C#Cc1c(F)ccc2cc(O)cc(-c3ncc4c(N5CC6CCC(C5)N6)nc(OCC56CCCN5CC(F)C6)nc4c3F)c12
viability, T/C: 111%
//
compound: Cc1nc(N2CCC3(CC2)COC(C)C3N)c(CO)nc1Sc1ccnc(N)c1Cl (stereo not given) + C#Cc1c(F)ccc2cc(O)cc(-c3ncc4c(N5CC6CCC(C5)N6)nc(OCC56CCCN5CC(F)C6)nc4c3F)c12
viability, T/C: 99.5%
//
compound: CCC(CC)c1cc(NC2CCC(N)C2)n2nccc2n1 (stereo not given) + C#Cc1c(F)ccc2cc(O)cc(-c3ncc4c(N5CC6CCC(C5)N6)nc(OCC56CCCN5CC(F)C6)nc4c3F)c12
viability, T/C: 10.2%
//
compound: Cc1nc(N2CCC3(CC2)COC(C)C3N)c(CO)nc1Sc1ccnc(N)c1Cl (stereo not given) + C=CC(=O)N1CCN(c2nc(OCC3CCCN3C)nc3c(F)c(-c4nc(N)cc(C)c4C(F)(F)F)c(Cl)cc23)C(C)C1
viability, T/C: 105%
//
compound: CC(C)NCC(C(=O)N1CCN(c2ncnc3c2C(C)CC3O)CC1)c1ccc(Cl)cc1 (stereo not given) + C#Cc1c(F)ccc2cc(O)cc(-c3ncc4c(N5CC6CCC(C5)N6)nc(OCC56CCCN5CC(F)C6)nc4c3F)c12
viability, T/C: 83.5%
//
compound: CC(C)NCC(C(=O)N1CCN(c2ncnc3c2C(C)CC3O)CC1)c1ccc(Cl)cc1 (stereo not given) + C=CC(=O)N1CCN(c2nc(OCC3CCCN3C)nc3c(F)c(-c4nc(N)cc(C)c4C(F)(F)F)c(Cl)cc23)C(C)C1
viability, T/C: 82.7%
//
compound: C[C@@H](NC(=O)c1ncnc(N)c1Cl)c1ncc(C(=O)Nc2cc(C(F)(F)F)c(Cl)cn2)s1 + C=CC(=O)N1CCN(c2nc(OCC3CCCN3C)nc3c(F)c(-c4nc(N)cc(C)c4C(F)(F)F)c(Cl)cc23)C(C)C1
viability, T/C: 66%
//
compound: CC(=O)OC12COC1CC(O)C1(C)C(=O)C(O)C3=C(C)C(OC(=O)C(O)C(NC(=O)OC(C)(C)C)c4ccccc4)CC(O)(C(OC(=O)c4ccccc4)C21)C3(C)C (stereo not given) + C#Cc1c(F)ccc2cc(O)cc(-c3ncc4c(N5CC6CCC(C5)N6)nc(OCC56CCCN5CC(F)C6)nc4c3F)c12
viability, T/C: 49.8%
//
compound: CC1(O)CCCC1n1c(=O)c(C(F)F)cc2cnc(NC3CCN(S(C)(=O)=O)CC3)nc21 (stereo not given) + C=CC(=O)N1CCN(c2nc(OCC3CCCN3C)nc3c(F)c(-c4nc(N)cc(C)c4C(F)(F)F)c(Cl)cc23)C(C)C1
viability, T/C: 119%
//
compound: CC(Nc1ccc2c(c1)OCCn1cc(N3C(=O)OCC3C(F)F)nc1-2)C(N)=O (stereo not given) + C#Cc1c(F)ccc2cc(O)cc(-c3ncc4c(N5CC6CCC(C5)N6)nc(OCC56CCCN5CC(F)C6)nc4c3F)c12
viability, T/C: 91.1%
